Cited source for all entries: ChEMBL document CHEMBL1201862

Parameter GI50: see the listing below.
System: OVCAR-3
measurement-protocol: NCI tumour cell line growth inhibition, 48 h
The source made the active and inactive calls. Rule as the data show it: active = GI50 up to about 1.1 µM and inactive = higher.

Some compounds with recorded GI50:
>>> experimental_value("CCN(CC)CCNC(=O)c1ccccc1NC(=O)C(=O)Nc1ccccc1C(=O)NCCN(CC)CC")
"62.7 µM (inactive)"
>>> experimental_value("CC(C)CC(NC(=O)c1cccc(O)c1O)C(=O)NCc1cc(CNC(=O)C(CC(C)C)NC(=O)c2cccc(O)c2O)cc(CNC(=O)C(CC(C)C)NC(=O)c2cccc(O)c2O)c1 (stereo not drawn)")
"4.33 µM (inactive)"
>>> experimental_value("Cn1ccnc1Sc1ccc(/C=N/c2ccc3nc(SCC(=O)NC4CCCCC4)sc3c2)cc1[N+](=O)[O-]")
"91.6 µM (inactive)"
>>> experimental_value("NC(C/C=C/P(=O)(O)O)C(=O)O (stereo not drawn)")
"> 100 µM (inactive)"
>>> experimental_value("CCc1c(O)c2c(c(O)c1C(C)=O)C(=O)c1c(cc(O)c(C(=O)O)c1C(=O)O)C2=O")
"> 100 µM (inactive)"

For Cc1ccc([S+]([O-])CC(CF)OCn2cc(C)c(=O)[nH]c2=O)cc1 (stereo not drawn) , what is its reported GI50?
> 100 µM (inactive)

For Cc1cc2c3c(coc3c1-c1c(C)cc3c4c(coc14)C(=O)C(O)=C3C(C)C)C(=O)C(O)=C2C(C)C , what is its reported GI50?
5.45 µM (inactive)

For COc1ccc2c(c1OC)C[C@@H]1c3c(cc4c(c3-2)OCO4)CCN1C , what is its reported GI50?
41.1 µM (inactive)
